- SYSTEM_UNDER_TEST: PCSK9 (Homo sapiens, UniProt Q8NBP7)
- Construct: biotin (biotinylated); purchased
- Sequence (Q8NBP7 153-692): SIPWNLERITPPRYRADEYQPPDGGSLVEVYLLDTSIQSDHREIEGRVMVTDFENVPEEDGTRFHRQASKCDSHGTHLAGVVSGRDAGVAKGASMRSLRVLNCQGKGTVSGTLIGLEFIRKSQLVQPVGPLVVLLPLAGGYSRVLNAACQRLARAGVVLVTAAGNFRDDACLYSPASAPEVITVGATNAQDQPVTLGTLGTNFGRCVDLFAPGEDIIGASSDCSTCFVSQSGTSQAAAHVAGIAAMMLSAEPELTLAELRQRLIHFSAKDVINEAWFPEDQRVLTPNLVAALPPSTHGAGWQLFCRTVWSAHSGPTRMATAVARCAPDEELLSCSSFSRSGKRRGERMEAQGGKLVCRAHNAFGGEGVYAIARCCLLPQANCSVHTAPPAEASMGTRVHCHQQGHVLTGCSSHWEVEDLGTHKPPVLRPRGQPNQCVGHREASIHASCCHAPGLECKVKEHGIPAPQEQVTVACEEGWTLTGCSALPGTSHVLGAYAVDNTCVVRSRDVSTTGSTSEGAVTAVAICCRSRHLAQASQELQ
- TEST_PROTOCOL: PCSK9 Alexa FRET Ultra TR-FRET assay
- Format: binding
- PARTICULARS: Ki Ultra, calculated from IC50 and KD of AF cyclic peptide; 0.5 nM PCSK9, 960 nM AF cyclic peptide; read-out: Alexa FRET Ultra TR-FRET
Entries and their measured pKi follow.
pKi is a log-scale quantity: -log10 of the concentration expressed in molar.

Worked cases, pKi given:
COc1ccc(C[C@@H]2NC(=O)[C@H]([C@@H](C)O)NC(=O)[C@@H]3[C@@H]4CCN3C(=O)[C@@H]3Cc5cn(c6ccc(F)cc56)CCCCCCN(Cc5ccc(cc5)CCNC(=O)[C@]5(C)CCCN5C2=O)C(=O)CCC(=O)N[C@@H](C)C(=O)N[C@H](CNC(=O)COCCOCCOCCOCCNC(=O)CCCCC[N+](C)(C)CCNC(=O)COCCOCCNC(=O)COCCOCCNC(=O)CC[C@@H](NC(=O)CCCCCCCCCCCCCCCCC(=O)O)C(=O)O)C(=O)N[C@@H](Cc2cccc(c2)CNC(=O)CO4)C(=O)N3)cc1; 11.00
COc1ccc(C[C@@H]2NC(=O)[C@H]([C@@H](C)O)NC(=O)[C@@H]3[C@@H]4CCN3C(=O)[C@@H]3Cc5cn(c6ccc(F)cc56)C/C=C/CCCN(Cc5ccc(cc5)CCNC(=O)[C@]5(C)CCCN5C2=O)C(=O)CCC(=O)N[C@@H](C)C(=O)N[C@H](CNC(=O)CCCCC[N+](C)(C)CCNC(=O)COCCOCCNC(=O)COCCOCCNC(=O)CC[C@H](NC(=O)CCCCCCCCCCCCCCCCC(=O)O)C(=O)O)C(=O)N[C@@H](Cc2cccc(c2)CNC(=O)CO4)C(=O)N3)cc1; 11.05

Item: `COc1ccc(C[C@@H]2NC(=O)[C@H]([C@@H](C)O)NC(=O)[C@@H]3[C@@H]4CCN3C(=O)[C@@H]3Cc5cn(c6ccc(F)cc56)CCCCCCN(Cc5ccc(cc5)CCNC(=O)[C@]5(C)CCCN5C2=O)C(=O)CCC(=O)N[C@@H](C)C(=O)N[C@H](CNC(=O)COCCOCCNC(=O)COCCOCCNC(=O)CC[C@H](NC(=O)CCCCCCCCCCCCCCCCC(=O)O)C(=O)O)C(=O)N[C@@H](Cc2cccc(c2)CNC(=O)CO4)C(=O)N3)cc1` | pKi: 10.68
